- ASSAYED SYSTEM: T1, NHERF3_1, Q5T2W1
- T1 sequence (Q5T2W1 4-100, limits assumed, looked up): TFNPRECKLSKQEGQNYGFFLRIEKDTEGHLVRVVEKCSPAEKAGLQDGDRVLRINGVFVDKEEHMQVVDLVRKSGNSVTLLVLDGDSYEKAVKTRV
- ASSAY PROTOCOL: holdup assay
- Set-up: key: below the threshold = too weak to quantify, mostly under pKd 3.1 to 4
- COND: plain residues with an end cap or a label only (N-terminal biotin on a linker: ahx)
MEASUREMENT KIND: pKd

Field: example entries. Status: answers known.
>>> observed_result("APSRKLNTEI [TIAM1, Q13009]")
"below the threshold"
>>> observed_result("HTHSYIETHV [CNKSR2, Q8WXI2]")
5.14
>>> observed_result("QDEKVKESYV [ABCA1, O95477]")
5.12
>>> observed_result("TESNLQTSSC [CGN, Q9P2M7]")
"below the threshold"
>>> observed_result("EKQAKGDTEF [CACYBP, Q9HB71]")
"below the threshold"

Respond only with pKd recorded for TEAKLTETNA [MYO18A, Q92614]
below the threshold
